src = the supplement of paper PMC12645437

Molecular target: T1, CRBN, Q96SW2;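 further: pooled lentiviral library of zinc finger degron-EGFP fusions in mCherry-positive Jurkat cells, FACS-sorted after compound exposure, with degron abundance counted by next-generation sequencing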
T1 chain: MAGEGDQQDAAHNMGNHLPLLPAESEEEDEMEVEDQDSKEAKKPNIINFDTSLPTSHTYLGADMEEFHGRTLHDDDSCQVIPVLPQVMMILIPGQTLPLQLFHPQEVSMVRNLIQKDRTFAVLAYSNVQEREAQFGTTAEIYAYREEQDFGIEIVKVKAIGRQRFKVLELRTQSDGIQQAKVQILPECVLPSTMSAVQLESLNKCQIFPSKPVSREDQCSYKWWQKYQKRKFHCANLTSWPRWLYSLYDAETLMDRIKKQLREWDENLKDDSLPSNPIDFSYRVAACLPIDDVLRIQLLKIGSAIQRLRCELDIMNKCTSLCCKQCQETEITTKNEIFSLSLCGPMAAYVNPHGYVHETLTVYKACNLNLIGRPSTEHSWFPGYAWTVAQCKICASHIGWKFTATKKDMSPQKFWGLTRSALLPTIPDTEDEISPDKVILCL
Test: log2 fold change of degron read counts, EGFP-low vs EGFP+ sorted cells (limma voom), compound-induced degradation; higher = more compound-induced degradation of the degron-EGFP fusion; degrons are variants of IKZF1/3 zinc finger 2; compound dose not given here
Conditions: Jurkat; 18 h; compound: compound 19 (5-tert-butyl-thalidomide)
The full ranking holds about 8,300 sequences; the median of “log2 fold change of degron read counts, EGFP-low vs EGFP+ sorted cells (limma voom), compound-induced degradation” is about -1.1, and the highest 2% start at about 3.2. Shown is part of a subset that was picked to be rich in the highest values.
VALUE_TYPE: log2 fold change of degron read counts
The reply should be a number, written without any unit.

Lab note: FACEICGAKFTQKGNLLRHIKL [46F_47A_49E_50I_52G_53A_54K_55F_67L_, Q9UKT9] gave log2 fold change of degron read counts of 3.82

Lab note: FWCPICGAFFTQKGNLLRHIKL [46F_47W_49P_50I_52G_53A_54F_55F_67L_, Q9UKT9] gave log2 fold change of degron read counts of 2.39

Lab note: FRCEICGAKFTQKGNLLRHIKL [46F_47R_49E_50I_52G_53A_54K_55F_67L_, Q9UKT9] gave log2 fold change of degron read counts of -0.269

Lab note: FCCPICGAYFTQKGNLLRHIKL [46F_47C_49P_50I_52G_53A_54Y_55F_67L_, Q9UKT9] gave log2 fold change of degron read counts of 1.38

Lab note: FWCPICGAYFTQKGNLLRHIKL [46F_47W_49P_50I_52G_53A_54Y_55F_67L_, Q9UKT9] gave log2 fold change of degron read counts of 2.72

Lab note: FYCPICGAYFTQKGNLLRHIKL [46F_47Y_49P_50I_52G_53A_54Y_55F_67L_, Q9UKT9] gave log2 fold change of degron read counts of 3.26

Lab note: FTCPQCGATFTQKGNLLRHIKL [46F_47T_49P_50Q_52G_53A_54T_55F_67L_, Q9UKT9] gave log2 fold change of degron read counts of -2
